Test system: CHO cells expressing human APP
protocol: Secreted Aβ40/Aβ42 ELISA in medium of CHO-APP cells
Type: cell-based, Chinese hamster
Set-up: key: Aβ42-lowering activity (“Yes”); no profound effects (“No”); non-determined (“ND”); Ginsenosides that affected cell viability are indicated as “Cytotoxic.”
conditions-used: Tables 1-3
assay-readout: Aβ42-lowering activity

C=C(CCC=C(C)C)[C@H]1CC[C@]2(C)[C@@H]1[C@H](O)C[C@@H]1[C@@]3(C)CC[C@H](O)C(C)(C)[C@@H]3[C@@H](O[C@@H]3O[C@H](CO)[C@@H](O)[C@H](O)[C@H]3O)C[C@]12C [Rk3] | No
CC(C)=CCC[C@@](C)(O)[C@H]1CC[C@]2(C)[C@@H]1[C@H](O)C[C@@H]1[C@@]3(C)CC[C@H](O[C@@H]4O[C@H](CO)[C@@H](O)[C@H](O)[C@H]4O[C@@H]4O[C@H](CO)[C@@H](O)[C@H](O)[C@H]4O)C(C)(C)[C@@H]3CC[C@]12C [(20R)Rg3] | Yes
C=C(CCC=C(C)C)[C@H]1CC[C@]2(C)[C@@H]1[C@H](O)C[C@@H]1[C@@]3(C)CC[C@H](O[C@@H]4O[C@H](CO)[C@@H](O)[C@H](O)[C@H]4O[C@@H]4O[C@H](CO)[C@@H](O)[C@H](O)[C@H]4O)C(C)(C)[C@@H]3CC[C@]12C [Rk1] | Yes
CC(C)=CCC[C@](C)(O[C@@H]1O[C@H](CO[C@@H]2OC[C@@H](O)[C@H](O)[C@H]2O)[C@@H](O)[C@H](O)[C@H]1O)[C@H]1CC[C@]2(C)[C@@H]1[C@H](O)C[C@@H]1[C@@]3(C)CC[C@H](O[C@@H]4O[C@H](CO)[C@@H](O)[C@H](O)[C@H]4O[C@@H]4O[C@H](CO)[C@@H](O)[C@H](O)[C@H]4O)C(C)(C)[C@@H]3CC[C@]12C [Rb3] | No
